Item-by-item account of pKa
- method: pKa of acidic and basic substances present in the compositions
- Type: physicochemical
- condition label: assumed to be equal to that of an analogue (footnote *1)

CCCCCCCCN [n-Octylamine] ... 10.7

From here, focus on the item given below.
### Prompt Look up and report measured pKa for this entry: Cc1ccc(C(=O)C(C)CN2CCCCC2)cc1 (centres unmarked) [Tolperisone, reference compound]
### Response ~8.9
